PROTOCOL: Probe fluorescence ratio response to arachidonic acid relative to ADIFAB2
Assay type: binding
COND: arachidonic acid; response relative to ADIFAB2
molecules and their reported DR/DR AA
Form field (numeric): enter value without unit.

Recorded DR/DR AA, per entry:
106A1, 72A (protein, listed as Rattus norvegicus, PEPTIDE (1)...(131) wild-type rat intestinal fatty acid binding protein) AFDGTWKVDRNENYEKFMEKMGINVVKRKLGAHDNLKLTITQEGNKFTVKESSNFRNIDVVFELGVDFAYSAADGTELTGTWTMEGNKLVGKFKRVDNGKELIAVAEISGNELIQTYTYEGVEAKRIFKKE    0.39
72V 73L 74W (protein, listed as Rattus norvegicus, PEPTIDE (1)...(131) wild-type rat intestinal fatty acid binding protein) AFDGTWKVDRNENYEKFMEKMGINVVKRKLGAHDNLKLTITQEGNKFTVKESSNFRNIDVVFELGVDFAYSVLWGTELTGTWTMEGNKLVGKFKRVDNGKELIAVREISGNELIQTYTYEGVEAKRIFKKE    0.500
38V 62V 117A 72A (protein, listed as Rattus norvegicus, PEPTIDE (1)...(131) wild-type rat intestinal fatty acid binding protein) AFDGTWKVDRNENYEKFMEKMGINVVKRKLGAHDNLKVTITQEGNKFTVKESSNFRNIDVVVELGVDFAYSAADGTELTGTWTMEGNKLVGKFKRVDNGKELIAVREISGNELIQTATYEGVEAKRIFKKE    0.984

GET /values?readout=DR/DR AA&item= 115L3, 72A (protein, listed as Rattus norvegicus, PEPTIDE (1)...(131) wild-type rat intestinal fatty acid binding protein) AFDGTWKVDRNENYEKFMEKMGINVVKRKLGAHDNLKLTITQEGNKFTVKESSNFRNIDVVFELGVDFAYSAADGTELTGTWTMEGNKLVGKFKRVDNGKELIAVREISGNELILTYTYEGVEAKRIFKKE
1.26

Field request: DR/DR AA | item: 21D, 72A (protein, listed as Rattus norvegicus, PEPTIDE (1)...(131) wild-type rat intestinal fatty acid binding protein) AFDGTWKVDRNENYEKFMEKDGINVVKRKLGAHDNLKLTITQEGNKFTVKESSNFRNIDVVFELGVDFAYSAADGTELTGTWTMEGNKLVGKFKRVDNGKELIAVREISGNELIQTYTYEGVEAKRIFKKE
1.301

Could you tell me which DR/DR AA is on file for 72N (protein, listed as Rattus norvegicus, PEPTIDE (1)...(131) wild-type rat intestinal fatty acid binding protein) AFDGTWKVDRNENYEKFMEKMGINVVKRKLGAHDNLKLTITQEGNKFTVKESSNFRNIDVVFELGVDFAYSNADGTELTGTWTMEGNKLVGKFKRVDNGKELIAVREISGNELIQTYTYEGVEAKRIFKKE ?
0.652

Data provenance is patent US20060257938A1.
